System: 922993-354-T-J3-PDC complex spheroid viability;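 also: spheroids exposed to the agents for one week; 100% = DMSO vehicle control wells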
Assay: Anticancer human tumor 922993-354-T-J3-PDC patient-derived endometrial carcinoma cell line growth inhibition [POLQ]
Details: second compound 0.1 µM; first compound 1 µM; stronger effect = lower value
Protocol: Multicellular complex tumor spheroid response to Polymerase (POL) inhibitors (novobiocin, ART-558, RP6685) in combination with a variety of drugs and investigational agents in selected tumor cell lines The POL inhibitors (novobiocin, ART-558, and RP6685) were evaluated both individually and in combination with standard of care and investigational anticancer small molecules within a complex spheroid model of solid tumors. . […]
measurementKind: viability, T/C (%)

- compound: "CC1COCCN1c1cc(C2(O)CC3CCC(C2)O3)c2cnn(-c3ccn[nH]3)c2n1 (stereo not given) + Cc1cccc(N(C)C(=O)C2C(O)CCN2c2nc(C)cc(C(F)(F)F)c2C#N)c1"
  measurement: 23.2
- compound: "COc1cc(C2c3cc4c(cc3C(OC3OC5COC(C)OC5C(O)C3O)C3COC(=O)C23)OCO4)cc(OC)c1O (stereo not given) + COC1C(OC(N)=O)C(O)C(Oc2ccc3c(O)c(NC(=O)c4ccc(O)c(CC=C(C)C)c4)c(=O)oc3c2C)OC1(C)C"
  measurement: 88.3
- compound: "O=C(Nc1ccc(O)c(NS(=O)(=O)c2ccc(F)cc2)c1)c1ccc(-c2ccccc2)cc1 + Nc1ccc(C#CCN(C(=O)Cc2ncc(C(F)(F)F)cc2C(F)(F)F)c2ccc(F)cc2)nn1"
  measurement: 97.6
- compound: "COc1cc2cc(C(=O)CCC(=O)O)sc2cc1OC + COC1C(OC(N)=O)C(O)C(Oc2ccc3c(O)c(NC(=O)c4ccc(O)c(CC=C(C)C)c4)c(=O)oc3c2C)OC1(C)C"
  measurement: 105
- compound: "COc1cccc2c1C(=O)c1c(O)c3c(c(O)c1C2=O)CC(O)(C(=O)CO)CC3OC1CC(N)C(O)C(C)O1 (stereo not given) + COC1C(OC(N)=O)C(O)C(Oc2ccc3c(O)c(NC(=O)c4ccc(O)c(CC=C(C)C)c4)c(=O)oc3c2C)OC1(C)C"
  measurement: 48
- compound: "O=C(c1cc(Cc2n[nH]c(=O)c3ccccc23)ccc1F)N1CCN(C(=O)C2CC2)CC1 + Cc1cccc(N(C)C(=O)C2C(O)CCN2c2nc(C)cc(C(F)(F)F)c2C#N)c1"
  measurement: 102
- compound: "CC1COCCN1c1cc(C2(S(C)(=N)=O)CC2)nc(-c2ccnc3[nH]ccc23)n1 (stereo not given) + COC1C(OC(N)=O)C(O)C(Oc2ccc3c(O)c(NC(=O)c4ccc(O)c(CC=C(C)C)c4)c(=O)oc3c2C)OC1(C)C"
  measurement: 93.2
- compound: "C=CC(=O)N1CCN(c2nc(=O)n(-c3c(C)ccnc3C(C)C)c3nc(-c4c(O)cccc4F)c(F)cc23)C(C)C1 (stereo not given) + Cc1cccc(N(C)C(=O)C2C(O)CCN2c2nc(C)cc(C(F)(F)F)c2C#N)c1"
  measurement: 108
- compound: "COc1cccc2c1C(=O)c1c(O)c3c(c(O)c1C2=O)CC(O)(C(=O)CO)CC3OC1CC(N)C(O)C(C)O1 (stereo not given) + Nc1ccc(C#CCN(C(=O)Cc2ncc(C(F)(F)F)cc2C(F)(F)F)c2ccc(F)cc2)nn1"
  measurement: 87.9
- compound: "O=C(Nc1ccc(O)c(NS(=O)(=O)c2ccc(F)cc2)c1)c1ccc(-c2ccccc2)cc1 + Cc1cccc(N(C)C(=O)C2C(O)CCN2c2nc(C)cc(C(F)(F)F)c2C#N)c1"
  measurement: 100
